# TARGET_DESC: T1, EsCas13d, nuclease-dead (Eubacterium siraeum, UniProt B0MS50, R295A;H300A;R849A;H854A)
# T1 sequence: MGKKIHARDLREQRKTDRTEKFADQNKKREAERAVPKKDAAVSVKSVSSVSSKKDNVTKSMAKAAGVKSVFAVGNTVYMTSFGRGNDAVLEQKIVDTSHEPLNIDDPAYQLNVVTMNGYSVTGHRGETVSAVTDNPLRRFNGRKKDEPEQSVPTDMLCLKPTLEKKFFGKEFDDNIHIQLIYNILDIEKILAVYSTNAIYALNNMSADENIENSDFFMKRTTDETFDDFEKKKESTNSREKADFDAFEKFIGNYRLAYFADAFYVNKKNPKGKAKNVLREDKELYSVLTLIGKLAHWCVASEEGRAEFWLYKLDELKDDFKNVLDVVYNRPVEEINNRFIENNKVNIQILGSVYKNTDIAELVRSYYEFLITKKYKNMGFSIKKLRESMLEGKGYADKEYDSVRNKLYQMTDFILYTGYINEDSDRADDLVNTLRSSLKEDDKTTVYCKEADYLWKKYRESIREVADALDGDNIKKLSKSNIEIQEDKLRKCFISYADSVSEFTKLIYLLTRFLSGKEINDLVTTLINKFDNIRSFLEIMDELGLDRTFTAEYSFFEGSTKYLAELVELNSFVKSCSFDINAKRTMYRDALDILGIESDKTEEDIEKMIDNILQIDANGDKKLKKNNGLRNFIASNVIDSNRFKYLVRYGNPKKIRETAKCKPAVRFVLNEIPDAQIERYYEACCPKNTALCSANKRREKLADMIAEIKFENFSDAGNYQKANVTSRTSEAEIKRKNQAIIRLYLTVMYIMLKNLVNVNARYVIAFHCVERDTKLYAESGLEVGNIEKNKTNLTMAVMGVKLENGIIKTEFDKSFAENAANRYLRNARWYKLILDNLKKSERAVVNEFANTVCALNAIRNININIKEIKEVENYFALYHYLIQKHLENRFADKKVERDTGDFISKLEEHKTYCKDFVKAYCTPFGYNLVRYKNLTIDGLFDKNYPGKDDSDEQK
# PROTOCOL_DESCRIPTION: crRNA (strand 1, pre-loaded); Mg2+; 40 mM Tris-HCl pH 7.5, 150 mM NaCl, 6 mM MgCl2, 1 mM DTT, 0.1% Tween-20, 0.2 mg/ml BSA; 25 C; 10 min per concentration, then washed
# SETUP_CONDITIONS: tags: His6-TwinStrep-SUMO cleaved; N-terminal SNAP kept (SNAP-Surface 488); label: 3' end held by stalled T7 RNA polymerase
Record form. Attribute: pKd. Fill in for each entry.
Give bare numbers, as −log10 of the molar value.

BINDER	pKd
target 3 complement block 13-15 (mixed) RNA 1: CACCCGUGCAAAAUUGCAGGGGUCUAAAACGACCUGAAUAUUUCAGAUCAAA RNA 2: GGGAAUGGAUCCACAUCUACGAAUUCGUUUUUGAUCACUAAUAUUCAGGUCUGCAGAUCGGAAGAGCACACGU	7.17
target 1 insU 3' of 5,insA 3' of 5 (mixed) RNA 1: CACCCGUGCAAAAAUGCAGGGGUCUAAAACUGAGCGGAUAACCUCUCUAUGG RNA 2: GGGAAUGGAUCCACAUCUACGAAUUCGUACCAUAGAGAGGUUAUCCGUACUCACCGAGAUCGGAAGAGCACACGU	7.86
target 3 insC 3' of 5,insG 3' of 2 (mixed) RNA 1: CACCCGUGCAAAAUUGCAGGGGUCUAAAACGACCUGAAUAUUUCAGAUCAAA RNA 2: GGGAAUGGAUCCACAUCUACGAAUUCGUUUUUGAUCUGAAAUAUUCACGGUGCUGCAGAUCGGAAGAGCACACGU	7.54
target 2 MT 5'PFS CAG 3'PFS ACA (mixed) RNA 1: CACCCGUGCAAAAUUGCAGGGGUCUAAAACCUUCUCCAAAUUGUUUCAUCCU RNA 2: GGGAAUGGAUCCACAUCUACGAAUUCCAGAGGAUGAAACAAUUUGGAGAAGACAAGAUCGGAAGAGCACACGU	8.28
target 3 A18G,U21C (mixed) RNA 1: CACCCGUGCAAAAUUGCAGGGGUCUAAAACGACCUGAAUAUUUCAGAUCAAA RNA 2: GGGAAUGGAUCCACAUCUACGAAUUCGUUUCUGGUCUGAAAUAUUCAGGUCUGCAGAUCGGAAGAGCACACGU	7.12
target 1 insG 3' of 7,insU 3' of 5 (mixed) RNA 1: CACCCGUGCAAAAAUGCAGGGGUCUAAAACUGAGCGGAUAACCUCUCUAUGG RNA 2: GGGAAUGGAUCCACAUCUACGAAUUCGUACCAUAGAGAGGUUAUCGCGUCUCACCGAGAUCGGAAGAGCACACGU	7.86
target 2 MT 5'PFS AGA 3'PFS CAC (mixed) RNA 1: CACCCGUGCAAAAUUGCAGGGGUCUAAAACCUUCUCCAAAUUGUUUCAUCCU RNA 2: GGGAAUGGAUCCACAUCUACGAAUUCAGAAGGAUGAAACAAUUUGGAGAAGCACAGAUCGGAAGAGCACACGU	8.13
target 1 MT 5'PFS CUA 3'PFS ACU (mixed) RNA 1: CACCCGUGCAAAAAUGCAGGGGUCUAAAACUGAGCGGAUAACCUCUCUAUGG RNA 2: GGGAAUGGAUCCACAUCUACGAAUUCCUACCAUAGAGAGGUUAUCCGCUCAACUAGAUCGGAAGAGCACACGU	8.31
target 1 insG 3' of 22,insC 3' of 9 (mixed) RNA 1: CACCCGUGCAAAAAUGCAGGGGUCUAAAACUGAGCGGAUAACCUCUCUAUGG RNA 2: GGGAAUGGAUCCACAUCUACGAAUUCGUACGCAUAGAGAGGUUACUCCGCUCACCGAGAUCGGAAGAGCACACGU	7.58
target 2 MT 5'PFS UUG 3'PFS CCG (mixed) RNA 1: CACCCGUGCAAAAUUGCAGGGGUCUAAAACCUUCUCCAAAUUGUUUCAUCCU RNA 2: GGGAAUGGAUCCACAUCUACGAAUUCUUGAGGAUGAAACAAUUUGGAGAAGCCGAGAUCGGAAGAGCACACGU	7.77

Please state, for each entry, its recorded pKd.
1. target 2 MT 5'PFS ACC 3'PFS CUU (mixed) RNA 1: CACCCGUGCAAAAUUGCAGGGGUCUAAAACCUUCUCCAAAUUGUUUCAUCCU RNA 2: GGGAAUGGAUCCACAUCUACGAAUUCACCAGGAUGAAACAAUUUGGAGAAGCUUAGAUCGGAAGAGCACACGU
2. target 2 MT 5'PFS AAC 3'PFS UAC (mixed) RNA 1: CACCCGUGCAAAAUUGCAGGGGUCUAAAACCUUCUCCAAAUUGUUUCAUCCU RNA 2: GGGAAUGGAUCCACAUCUACGAAUUCAACAGGAUGAAACAAUUUGGAGAAGUACAGAUCGGAAGAGCACACGU
3. target 1 MT 5'PFS CUA 3'PFS ACG (mixed) RNA 1: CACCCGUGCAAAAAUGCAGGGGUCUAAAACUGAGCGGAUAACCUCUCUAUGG RNA 2: GGGAAUGGAUCCACAUCUACGAAUUCCUACCAUAGAGAGGUUAUCCGCUCAACGAGAUCGGAAGAGCACACGU
4. target 2 MT 5'PFS GGU 3'PFS AAA (mixed) RNA 1: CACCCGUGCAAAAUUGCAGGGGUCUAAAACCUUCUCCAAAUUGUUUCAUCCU RNA 2: GGGAAUGGAUCCACAUCUACGAAUUCGGUAGGAUGAAACAAUUUGGAGAAGAAAAGAUCGGAAGAGCACACGU
5. target 1 MT 5'PFS GUA 3'PFS AGG (mixed) RNA 1: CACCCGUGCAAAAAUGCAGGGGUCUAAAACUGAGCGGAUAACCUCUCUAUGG RNA 2: GGGAAUGGAUCCACAUCUACGAAUUCGUACCAUAGAGAGGUUAUCCGCUCAAGGAGAUCGGAAGAGCACACGU

**A:**
8.20
8.28
8.22
8.15
7.64
